EXPERIMENT_NOTES: Stability in simulated gastric fluid
Assay type: in vitro ADME
CONDITION_LABEL: 2 μM peptidomimetic, simulated gastric fluid pH 1.5, 37° C., 24 h
ENDPOINT_NAME: % degradation of peptidomimetics in 24 h when incubated with simulated gastric fluid (%)

[[record]]
compound = "CCc1cc(OC)ccc1-c1ccc(CC(NC(=O)[C@H](CC(=O)O)NC(=O)[C@H](CO)NC(=O)[C@@H](NC(=O)C(C)(Cc2ccccc2F)NC(=O)[C@@H](NC(=O)CNC(=O)C(CCC#N)NC(=O)C(C)(C)NC(=O)[C@@H](N)Cc2c[nH]cn2)[C@H](C)O)[C@H](C)O)C(=O)N(C)C(CCCc2ccccc2)C(N)=O)cc1 (single isomer, unassigned)"
readout_units = "%"
recorded_value = 12

[[record]]
compound = "CCc1cc(OC)ccc1-c1ccc(CC(NC(=O)[C@H](CC(=O)O)NC(=O)[C@H](CO)NC(=O)[C@@H](NC(=O)[C@H](Cc2ccccc2)NC(=O)[C@@H](NC(=O)CNC(=O)C(CCC#N)NC(=O)C(C)(C)NC(=O)[C@@H](N)Cc2c[nH]cn2)[C@@H](C)O)[C@@H](C)O)C(=O)NC(CCCc2ccccc2C(F)(F)F)C(N)=O)cc1 (single isomer, unassigned)"
readout_units = "%"
recorded_value = 100


---

# blood glucose levels values compiled below
Test system: C57BL/6J mice (mild hyperglycemic)
EXPERIMENT_NOTES: In vivo glucose reduction, acute single dose 120-min time-course, i.p. route
Design: species or system mouse; unit not given here
CONDITION_LABEL: male C57BL/6J mice, 30 nM/kg i.p., 120 min
Non-standard residues stand in square brackets, D forms with d. Residues, ends and D or L forms follow the SMILES beside them. ξ: configuration not given here. ξBip(2'-Et-4'-OMe) = CCc1cc(OC)ccc1-c1ccc(CC(N)C(=O)O)cc1; ξNva(5-(3,5-Me2-Ph)) = Cc1cc(C)cc(CCCC(N)C(=O)O)c1; Aib = CC(C)(N)C(=O)O
ENDPOINT_NAME: blood glucose levels

[[record]]
compound = "CCc1cc(OC)ccc1-c1ccc(CC(C(=O)N(C)C(CCCc2ccccc2)C(N)=O)N(C)C(=O)[C@H](CC(=O)O)NC(=O)[C@H](CO)NC(=O)[C@@H](NC(=O)C(C)(Cc2ccccc2F)NC(=O)[C@@H](NC(=O)CNC(=O)C(CCC#N)NC(=O)C(C)(C)NC(=O)[C@@H](N)Cc2c[nH]cn2)[C@H](C)O)[C@H](C)O)cc1 (single isomer, unassigned) [Seq. ID. 142]"
recorded_value = "119 ± 2.0"

[[record]]
compound = "CCc1cc(OC)ccc1-c1ccc(CC(NC(=O)[C@H](CC(=O)O)NC(=O)[C@H](CO)NC(=O)[C@@H](NC(=O)[C@H](Cc2ccccc2)NC(=O)[C@@H](NC(=O)CNC(=O)[C@H](CCC(N)=O)NC(=O)C(C)(C)NC(=O)[C@@H](N)Cc2c[nH]cn2)[C@@H](C)O)[C@@H](C)O)C(=O)NC(CCCc2cc(C)cc(C)c2)C(N)=O)cc1 (stereo partly drawn) [Seq. ID. 18] (H-H[Aib]QGTFTSD[ξBip(2'-Et-4'-OMe)][ξNva(5-(3,5-Me2-Ph))]-NH2)"
recorded_value = "117 ± 1.9"

[[record]]
compound = "CCc1cc(OC)ccc1-c1ccc(CC(NC(=O)[C@H](CC(=O)O)NC(=O)[C@H](CO)NC(=O)[C@@H](NC(=O)C(C)(Cc2ccccc2F)NC(=O)[C@@H](NC(=O)CNC(=O)C(CCC#N)NC(=O)C(C)(C)NC(=O)[C@@H](N)Cc2c[nH]cn2)[C@H](C)O)[C@H](C)O)C(=O)N(C)C(CCCc2ccccc2)C(N)=O)cc1 (single isomer, unassigned) [Seq. ID. 130]"
recorded_value = "119 ± 2.3"

